- Tested on: SK-OV-3
- ASSAY_OVERVIEW: NCI tumour cell line growth inhibition, 48 h
The source made the active and inactive calls. Rule as the data show it: active = GI50 up to about 1.1 µM and inactive = higher.
ASSAY_METRIC: GI50

Short answer on SK-OV-3 for C[N+]1(C)CCC(C#N)(c2ccccc2)CC1 , GI50: > 100 µM (inactive)

Short answer on SK-OV-3 for COC(=O)c1cccc2cccc(C(=O)Nc3ccc(C)cc3C)c12 , GI50: > 100 µM (inactive)

Short answer on SK-OV-3 for N#CCCC(C=O)(CCC#N)CCC#N , GI50: > 100 µM (inactive)

Short answer on SK-OV-3 for O=[N+]([O-])/C(Cl)=C(\NCCO)C(Cl)=C(Cl)Cl , GI50: > 100 µM (inactive)

Short answer on SK-OV-3 for COc1ccc2c(c1)C(N)=C(Cc1ccncc1)C2=O , GI50: > 100 µM (inactive)

Short answer on SK-OV-3 for COc1cc(/C=C/C(=O)OC2C(O)C3CC(OC(=O)c4cc(OC)c(OC)c(OC)c4)CC2N3C)cc(OC)c1OC (stereo unspecified) , GI50: 21.8 µM (inactive)

Short answer on SK-OV-3 for COC(=O)c1nc(Cl)nc(Cl)c1Cl , GI50: 41.9 µM (inactive)

Short answer on SK-OV-3 for CN1CCc2cc(N)cc3c2C1Cc1ccc(O)c(O)c1-3 (stereo unspecified) , GI50: 52.7 µM (inactive)

Short answer on SK-OV-3 for C/C(=N\NC(=S)N1CCOCC1)c1nc2cccnc2[nH]1 , GI50: 36.6 µM (inactive)

Short answer on SK-OV-3 for CC1C(=NO)C(C)C(c2ccccc2)N(N=O)C1c1ccccc1 (stereo unspecified) , GI50: 4.72 µM (inactive)

Short answer on SK-OV-3 for CCOC(=O)c1cc(-c2ccc(OC)cc2)c([N+](=O)[O-])[nH]1 , GI50: > 10 µM (inactive)

---

- Tested on: HOP-92
- ASSAY_OVERVIEW: NCI tumour cell line growth inhibition, 48 h
Calls of active or inactive are those of the source. No stated cut-off is given here; in the data, active = GI50 up to about 1.1 µM and inactive = higher.
Just give me one of these, please: active, inactive

Prompt: Short answer needed: outcome of this test for COC(NC(=O)Nc1ccccc1C)(C(F)(F)F)C(F)(F)F ?
Completion: inactive

Prompt: Short answer needed: outcome of this test for CC(=O)OC1=CC2(OC(C)=O)CC(C)(C)C1C1C(=O)C=CC(=O)C12 (stereo not given) ?
Completion: inactive

Prompt: Short answer needed: outcome of this test for c1ccc(COc2ccc(C[P+](c3ccccc3)(c3ccccc3)c3ccccc3)cc2)cc1 ?
Completion: active

Prompt: Short answer needed: outcome of this test for CCCCc1ccc(Nc2nc(SC)c3[nH]cnc3n2)cc1 ?
Completion: inactive

Prompt: Short answer needed: outcome of this test for COc1ccc2c(c1)c(=O)c1c(NCCN(C)C)ccc3c(=O)n(CCN(C)C)c(=O)n2c31 ?
Completion: active

Prompt: Short answer needed: outcome of this test for CC(=O)Nc1ccc(-c2nnc(SCC(=O)Nc3ccccc3C)o2)cc1 ?
Completion: inactive

Prompt: Short answer needed: outcome of this test for COC(=O)C1CC23C=CCN4CC(C2C)C2(c5ccccc5NC12)C43 (stereo not given) ?
Completion: inactive

Prompt: Short answer needed: outcome of this test for CC1(C)Oc2ccc(NC(=O)CCC(N)C(=O)O)cc2O1 (stereo not given) ?
Completion: inactive

Prompt: Short answer needed: outcome of this test for COc1ccc(C2C3=C(COC3=O)OC(C)(C)Oc3cc4c(cc32)OCO4)cc1OC (stereo not given) ?
Completion: inactive

Prompt: Short answer needed: outcome of this test for Fc1cc(-c2cc(-c3ccc4c(c3)OCO4)n[nH]2)c(Cl)cc1Cl ?
Completion: inactive

Values from ChEMBL document CHEMBL1201862
